# experimentalSystem: PI3K γ (Homo sapiens (Human))
# Sequence (P48736 whole entry, canonical isoform): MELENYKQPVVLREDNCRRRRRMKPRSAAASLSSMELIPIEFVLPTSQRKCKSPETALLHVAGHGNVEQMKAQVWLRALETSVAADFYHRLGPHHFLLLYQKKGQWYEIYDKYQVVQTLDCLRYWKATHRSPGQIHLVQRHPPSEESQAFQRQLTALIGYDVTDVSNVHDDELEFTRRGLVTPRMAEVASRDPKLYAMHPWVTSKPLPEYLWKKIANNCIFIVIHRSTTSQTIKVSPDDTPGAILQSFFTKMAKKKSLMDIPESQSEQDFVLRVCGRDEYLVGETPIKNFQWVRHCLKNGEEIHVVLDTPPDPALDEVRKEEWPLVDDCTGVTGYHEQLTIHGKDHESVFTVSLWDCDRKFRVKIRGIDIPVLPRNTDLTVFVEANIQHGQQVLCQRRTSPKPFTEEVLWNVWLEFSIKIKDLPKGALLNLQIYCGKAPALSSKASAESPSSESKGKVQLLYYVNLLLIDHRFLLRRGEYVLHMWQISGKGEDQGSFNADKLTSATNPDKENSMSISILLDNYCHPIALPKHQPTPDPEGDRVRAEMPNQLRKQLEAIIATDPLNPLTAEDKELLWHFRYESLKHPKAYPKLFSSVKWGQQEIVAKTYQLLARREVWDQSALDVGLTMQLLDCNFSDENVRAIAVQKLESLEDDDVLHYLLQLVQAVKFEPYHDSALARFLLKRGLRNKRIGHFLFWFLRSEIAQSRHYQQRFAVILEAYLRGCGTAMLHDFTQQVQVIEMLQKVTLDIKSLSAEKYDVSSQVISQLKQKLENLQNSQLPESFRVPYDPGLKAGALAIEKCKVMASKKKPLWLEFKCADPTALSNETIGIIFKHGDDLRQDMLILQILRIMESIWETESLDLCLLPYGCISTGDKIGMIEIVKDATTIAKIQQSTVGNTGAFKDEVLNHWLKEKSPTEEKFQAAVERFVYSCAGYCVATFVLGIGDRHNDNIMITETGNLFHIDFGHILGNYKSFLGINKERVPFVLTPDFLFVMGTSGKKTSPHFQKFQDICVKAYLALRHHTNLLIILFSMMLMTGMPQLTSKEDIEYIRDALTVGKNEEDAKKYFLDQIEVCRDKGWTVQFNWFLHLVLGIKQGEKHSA
# assayNotes: PI3-Kinase in vitro IC50 assay, γ isoform
# studyConditions: in vitro
pIC50: −log10 of the molar value.
Listed molecules paired with reported pIC50
readout: pIC50

>>> print(df.to_string())
                                   molecule  readout  reportedvalue
0  C[C@H](NC(=O)c1c(N)nn2cccnc12)c1oc2cccc(C#Cc3cnn(C)c3)c2c(=O)c1-c1ccccc1 [Compound 103S]    pIC50   6.30 to 7.00
1  C[C@@H](NC(=O)c1c(N)nn2cccnc12)c1nc2cccc(C#Cc3cnn(C)c3)c2cc1-c1ccccc1 [Compound 181R]    pIC50         < 5.30
2  C[C@H](NC(=O)c1c(N)nn2cccnc12)c1cc2cccc(C#Cc3cnn(C)c3)c2nc1-c1ccccc1 [Compound 175S]    pIC50   6.30 to 7.00
3  CC(NC(=O)c1c(N)nn2cccnc12)c1oc2cccc(C#Cc3cnn(C)c3)c2c(=O)c1-c1ccccc1 (stereo not shown) [Compound 103]    pIC50   5.30 to 6.00
4  C[C@@H](NC(=O)c1c(N)nn2cccnc12)c1oc2cccc(C#Cc3cnn(C)c3)c2c(=O)c1-c1ccccc1 [Compound 103R]    pIC50         < 5.30
5  C[C@@H](NC(=O)c1c(N)nn2cccnc12)c1cc2cccc(C#Cc3cnn(C)c3)c2nc1-c1ccccc1 [Compound 175R]    pIC50         < 5.30
6  C[C@H](NC(=O)c1c(N)nn2cccnc12)c1nc2cccc(C#Cc3cnn(C)c3)c2cc1-c1ccccc1 [Compound 181S]    pIC50         < 5.30

###

Listed molecules paired with reported IC50
# experimentalSystem: p110 δ (Homo sapiens (Human))
# Sequence (O00329 whole entry): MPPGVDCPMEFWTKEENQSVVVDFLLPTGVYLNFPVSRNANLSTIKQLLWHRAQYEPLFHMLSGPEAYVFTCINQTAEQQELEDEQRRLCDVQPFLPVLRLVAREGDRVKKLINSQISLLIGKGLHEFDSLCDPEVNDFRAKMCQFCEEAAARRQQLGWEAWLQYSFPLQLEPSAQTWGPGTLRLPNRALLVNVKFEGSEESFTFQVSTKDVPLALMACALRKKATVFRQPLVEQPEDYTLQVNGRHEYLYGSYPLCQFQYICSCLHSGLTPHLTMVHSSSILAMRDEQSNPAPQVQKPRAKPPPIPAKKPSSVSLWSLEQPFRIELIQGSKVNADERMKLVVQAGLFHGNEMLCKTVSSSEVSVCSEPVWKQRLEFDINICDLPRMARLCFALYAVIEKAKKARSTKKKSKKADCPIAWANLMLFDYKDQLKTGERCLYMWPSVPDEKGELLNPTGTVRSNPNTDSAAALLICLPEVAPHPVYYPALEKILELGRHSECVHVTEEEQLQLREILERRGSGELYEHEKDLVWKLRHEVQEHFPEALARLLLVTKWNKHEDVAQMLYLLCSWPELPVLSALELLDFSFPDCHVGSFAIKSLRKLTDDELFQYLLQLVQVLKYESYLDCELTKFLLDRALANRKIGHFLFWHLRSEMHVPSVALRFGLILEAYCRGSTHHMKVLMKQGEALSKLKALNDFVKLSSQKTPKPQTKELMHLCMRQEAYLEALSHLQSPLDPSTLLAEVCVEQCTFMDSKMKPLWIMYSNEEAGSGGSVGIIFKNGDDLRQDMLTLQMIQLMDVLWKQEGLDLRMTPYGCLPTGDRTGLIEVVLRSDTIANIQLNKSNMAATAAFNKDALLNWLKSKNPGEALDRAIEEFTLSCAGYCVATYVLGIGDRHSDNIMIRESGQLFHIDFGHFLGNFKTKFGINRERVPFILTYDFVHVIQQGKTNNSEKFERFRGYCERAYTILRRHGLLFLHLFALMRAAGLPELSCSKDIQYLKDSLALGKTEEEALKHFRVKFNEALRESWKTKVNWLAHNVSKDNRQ
# Sequence (P27986 whole entry partner): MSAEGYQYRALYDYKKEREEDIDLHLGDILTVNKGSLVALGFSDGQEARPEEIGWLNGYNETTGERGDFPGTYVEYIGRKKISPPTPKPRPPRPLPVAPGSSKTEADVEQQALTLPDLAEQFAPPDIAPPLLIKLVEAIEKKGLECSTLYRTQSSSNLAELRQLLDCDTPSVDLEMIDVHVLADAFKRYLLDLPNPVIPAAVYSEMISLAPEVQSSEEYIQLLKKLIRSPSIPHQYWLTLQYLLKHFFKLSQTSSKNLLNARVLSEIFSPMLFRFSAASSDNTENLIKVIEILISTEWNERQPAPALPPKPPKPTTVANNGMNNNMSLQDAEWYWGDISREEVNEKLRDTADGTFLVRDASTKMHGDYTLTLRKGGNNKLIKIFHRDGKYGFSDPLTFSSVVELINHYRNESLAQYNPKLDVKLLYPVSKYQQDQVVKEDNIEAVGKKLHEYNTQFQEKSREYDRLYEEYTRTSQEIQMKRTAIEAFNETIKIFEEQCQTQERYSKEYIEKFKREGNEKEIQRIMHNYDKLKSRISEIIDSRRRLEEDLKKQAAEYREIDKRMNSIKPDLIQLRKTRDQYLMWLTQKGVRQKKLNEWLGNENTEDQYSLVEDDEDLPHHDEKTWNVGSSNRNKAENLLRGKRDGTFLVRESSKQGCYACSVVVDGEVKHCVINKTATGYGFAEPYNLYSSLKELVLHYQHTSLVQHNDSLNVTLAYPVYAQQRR
# assayNotes: RAJI p110 δ assay (PI3K-δ selective cellular assay, phospho-AKT)
# studyConditions: RAJI cells stimulated with anti-human IgM
readout: IC50

In [3]: df
Out[3]:
                                   molecule  reportedvalue
0  C[C@H](NC(=O)c1c(N)nn2cccnc12)c1nc2cccc(C#Cc3cnn(C)c3)c2cc1-c1ccccc1 [Compound 181S]     1 to 10 µM
1  C[C@H](NC(=O)c1c(N)nn2cccnc12)c1oc2cccc(C#Cc3cnn(C)c3)c2c(=O)c1-c1ccccc1 [Compound 103S]     1 to 10 µM
2  C[C@@H](NC(=O)c1c(N)nn2cccnc12)c1nc2cccc(C#Cc3cnn(C)c3)c2cc1-c1ccccc1 [Compound 181R]     1 to 10 µM
